As shown below, each of these compounds has a reported IC50 value.
target: PI3K-γ (Homo sapiens); test: PI3K-gamma fluorescence polarization assay; settings: read-out: IC50 PI3Kγ
Sequence (P48736 whole entry, species assumed): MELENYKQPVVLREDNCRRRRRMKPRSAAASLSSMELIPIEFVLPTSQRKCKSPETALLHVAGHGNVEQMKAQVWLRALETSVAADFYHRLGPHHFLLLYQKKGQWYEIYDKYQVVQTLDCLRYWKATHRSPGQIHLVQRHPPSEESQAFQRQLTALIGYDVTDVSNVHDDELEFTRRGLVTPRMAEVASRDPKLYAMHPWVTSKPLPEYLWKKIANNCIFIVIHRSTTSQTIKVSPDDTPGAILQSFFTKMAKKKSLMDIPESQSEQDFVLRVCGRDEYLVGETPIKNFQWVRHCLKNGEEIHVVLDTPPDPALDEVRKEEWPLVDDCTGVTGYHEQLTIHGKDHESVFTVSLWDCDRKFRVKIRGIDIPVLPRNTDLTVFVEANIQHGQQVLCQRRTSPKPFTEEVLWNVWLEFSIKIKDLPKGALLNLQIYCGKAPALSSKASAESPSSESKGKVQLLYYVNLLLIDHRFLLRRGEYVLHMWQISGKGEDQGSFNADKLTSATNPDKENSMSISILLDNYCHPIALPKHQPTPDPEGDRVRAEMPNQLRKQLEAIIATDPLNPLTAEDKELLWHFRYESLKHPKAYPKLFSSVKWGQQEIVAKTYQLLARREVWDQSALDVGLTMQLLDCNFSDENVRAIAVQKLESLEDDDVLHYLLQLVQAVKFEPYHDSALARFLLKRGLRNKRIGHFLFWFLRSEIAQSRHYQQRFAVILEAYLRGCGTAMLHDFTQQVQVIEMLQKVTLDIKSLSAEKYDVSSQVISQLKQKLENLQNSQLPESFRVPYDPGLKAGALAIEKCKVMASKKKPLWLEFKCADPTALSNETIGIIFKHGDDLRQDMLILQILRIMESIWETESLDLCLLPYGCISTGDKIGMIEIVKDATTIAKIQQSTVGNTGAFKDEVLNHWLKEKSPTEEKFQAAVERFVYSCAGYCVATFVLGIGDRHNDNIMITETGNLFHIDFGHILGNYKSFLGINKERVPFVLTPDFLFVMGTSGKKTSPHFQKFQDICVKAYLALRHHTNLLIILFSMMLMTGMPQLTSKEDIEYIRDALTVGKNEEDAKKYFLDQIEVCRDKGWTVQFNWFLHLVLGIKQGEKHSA
Field format: number, assumed nM, no unit text.

Q: Provide one value: measured IC50 of `CC(C)c1nc(-c2ccc(NC(=O)Nc3ccc(C(=O)Nc4cccnc4)cc3)cc2)nc(N2CCOCC2)n1`
Result: 82

Q: In one line, give reported IC50 of the entry `NCCCCOc1nc(-c2ccc(NC(=O)Nc3cccnc3)cc2)nc(N2CC3CCC(C2)O3)n1` .
Result: 6730

Q: Entry `CN1CCN(Cc2ccc(NC(=O)Nc3ccc(-c4nc(N5CCOCC5)nc(N5C6CCC5COC6)n4)cc3)cc2)CC1` needs its IC50 filled in; supply it.
Result: 190

Q: Supply IC50 value. Item: `CCCCc1nc(-c2ccc(NC(=O)Nc3ccc(C(=O)NCCN(C)C)cc3)cc2)nc(N2CCOCC2)n1`
Result: 63

Q: Given the compound `CC(C)(C)OC(=O)N1CC(Nc2nc(-c3ccc(NC(=O)Nc4ccccc4)cc3)nc(N3CCOCC3)n2)C1` , write its reported IC50.
Result: 154

***
Q: Please give the documented IC50 of `O=C(Nc1ccncc1)Nc1ccc(-c2nc(N3CCOCC3)nc(N3C[C@@H]4C[C@H]3CO4)n2)cc1`
Result: 203

Q: Name the recorded IC50 of the compound listed here: `C[C@H]1COCCN1c1nc(-c2ccc(NC(=O)Nc3ccc(C(=O)N4CCN(C)CC4)cc3)cc2)nc(N2C3CCC2COC3)n1`
Result: 66
